test.target: Speckle-type POZ protein (Homo sapiens) (UniProt O43791)
Sequence (O43791 whole entry, the tested form may be a part): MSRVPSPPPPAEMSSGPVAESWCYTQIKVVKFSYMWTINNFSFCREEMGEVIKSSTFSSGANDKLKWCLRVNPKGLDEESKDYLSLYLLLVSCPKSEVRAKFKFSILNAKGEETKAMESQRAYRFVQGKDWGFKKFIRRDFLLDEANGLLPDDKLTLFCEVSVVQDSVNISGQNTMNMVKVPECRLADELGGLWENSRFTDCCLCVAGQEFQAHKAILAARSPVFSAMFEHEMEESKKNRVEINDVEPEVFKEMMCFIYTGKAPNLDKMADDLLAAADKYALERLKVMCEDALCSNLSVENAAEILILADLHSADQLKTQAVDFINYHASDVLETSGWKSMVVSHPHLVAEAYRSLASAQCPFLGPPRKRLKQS
assay.remarks: Binding affinity to recombinant N-terminal GST/His-tagged SPOP (unknown origin) MATH binding domain expressed in Escherichia coli BL21 (DE3) assessed as change in melting temperature at 5 fold compound by SYPRO Orange dye based differential scanning fluorimetry (reference value: -1.7 degreeC)
Measured ΔTm values are reported for all entries that follow.
Answer with a number only, understood to be in °C.

Below, 2 compounds whose answers are already recorded.
>  <given.smiles>
Cc1ccc(CCn2c(=N)c(C(=O)NCCCN3CCOCC3)cc3c(=O)n4cccc(C)c4nc32)cc1

>  <unit.name>
°C

>  <ΔTm>
2

$$$$
>  <given.smiles>
COc1ccc(CCn2c(=N)c(C(=O)NCCCN3CCOCC3)cc3c(=O)n4cccc(C)c4nc32)cc1

>  <unit.name>
°C

>  <ΔTm>
2.7

$$$$

Shifting focus to the compound that follows.
Quickly give me recorded ΔTm for Cc1cccn2c(=O)c3cc(C(=O)NCCN4CCN(C)CC4)c(=N)n(CCc4cccs4)c3nc12
3.7
